molecular target: NR2B (Homo sapiens, UniProt Q13224); construct: host or cells: HEK293 or CHO; assay: Ion channel panel (IonWorks Barracuda): NR2B; format: cell-based; conditions: peptide at 20 μM; 100% = no change, <100% = inhibition
Sequence (Q13224 27-1484, other chains not shown): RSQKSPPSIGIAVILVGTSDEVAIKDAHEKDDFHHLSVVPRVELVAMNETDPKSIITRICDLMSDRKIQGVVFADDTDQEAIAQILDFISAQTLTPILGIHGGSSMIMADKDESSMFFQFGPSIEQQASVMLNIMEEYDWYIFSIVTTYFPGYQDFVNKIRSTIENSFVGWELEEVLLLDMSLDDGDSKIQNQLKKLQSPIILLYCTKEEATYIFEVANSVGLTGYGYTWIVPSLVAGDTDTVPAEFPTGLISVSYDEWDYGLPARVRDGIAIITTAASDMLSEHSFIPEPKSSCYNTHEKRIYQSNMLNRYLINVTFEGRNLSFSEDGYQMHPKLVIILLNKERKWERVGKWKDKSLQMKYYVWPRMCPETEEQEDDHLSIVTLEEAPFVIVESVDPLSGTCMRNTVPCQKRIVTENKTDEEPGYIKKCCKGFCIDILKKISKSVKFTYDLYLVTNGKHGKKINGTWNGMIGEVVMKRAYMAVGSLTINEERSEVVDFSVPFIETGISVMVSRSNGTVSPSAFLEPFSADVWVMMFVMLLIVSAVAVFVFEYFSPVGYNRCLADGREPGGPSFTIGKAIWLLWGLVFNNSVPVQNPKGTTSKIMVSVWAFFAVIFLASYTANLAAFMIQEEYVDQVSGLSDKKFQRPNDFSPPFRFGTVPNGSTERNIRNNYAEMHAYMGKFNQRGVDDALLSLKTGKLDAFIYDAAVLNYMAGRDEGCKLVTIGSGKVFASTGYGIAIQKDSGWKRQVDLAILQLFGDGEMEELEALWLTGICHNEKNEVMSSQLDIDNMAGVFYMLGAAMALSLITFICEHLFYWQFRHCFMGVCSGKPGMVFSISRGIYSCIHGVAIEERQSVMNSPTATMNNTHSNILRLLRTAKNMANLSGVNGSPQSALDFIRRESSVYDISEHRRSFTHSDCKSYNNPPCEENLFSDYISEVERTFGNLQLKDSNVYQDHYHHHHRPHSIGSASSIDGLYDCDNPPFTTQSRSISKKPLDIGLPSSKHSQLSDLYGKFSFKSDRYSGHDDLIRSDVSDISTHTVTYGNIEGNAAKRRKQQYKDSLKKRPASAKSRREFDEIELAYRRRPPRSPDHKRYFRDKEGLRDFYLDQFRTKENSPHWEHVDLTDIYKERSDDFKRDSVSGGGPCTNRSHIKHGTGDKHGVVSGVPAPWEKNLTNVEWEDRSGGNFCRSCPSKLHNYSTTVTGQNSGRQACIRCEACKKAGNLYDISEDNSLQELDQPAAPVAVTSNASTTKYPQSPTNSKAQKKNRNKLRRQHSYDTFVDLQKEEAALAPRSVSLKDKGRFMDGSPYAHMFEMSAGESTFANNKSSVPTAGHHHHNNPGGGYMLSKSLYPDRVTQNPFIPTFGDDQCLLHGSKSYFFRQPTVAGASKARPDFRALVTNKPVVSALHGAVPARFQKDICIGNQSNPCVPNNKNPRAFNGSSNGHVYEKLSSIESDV
valueType: Activity of NR2B with peptide (percentage of the reference compound) (%)
// note: answer is a bare numeric in %

Completed entries (count: 8):
substance | val
19 (GSQFTDVKCTGSKQCWPVCKQMFGKPNGKCMNGKCRCYS) [compound 19] | 130
22 (GSSDYCSNDFCFFSCRRDRCARGDCENGKCVCKNCHLN) [compound 22] | 97
14 (GSDRDSCIDKSRCSKYGYYQECQDCCKKAGHNGGTCMFFKCKCA) [compound 14] | 72
4 (GSSCAKPRENCNRMNILCCRGECVCPTFGDCFCYGD) [compound 4] | 93
18 (GSNCAGYMRECKEKLCCSGYVCSSRWKWCVLPAPWRR) [compound 18] | 78
24 (GSSCAKPGEMCMRIKCCDGQCGCNRGTGRCFCK) [compound 24] | 92
15 (GSAVCNLKRCQLSCRSLGLLGKCIGDKCECVKHG) [compound 15] | 88
13 (GSQKILSNRCNNSSECIPHCIRIFGTRAAKCINRKCYCYP) [compound 13] | 117

Exercise: Tell us which Activity of NR2B with peptide (percentage of the reference compound) value is on record for 5 (GSGVPINVKCRGSRDCLDPCKKAGMRFGKCINSKCHCTP) [compound 5]
Solution: 95

Exercise: Answer with reported Activity of NR2B with peptide (percentage of the reference compound) of 20 (GSQIDTNVKCSGSSKCVKICIDRYNTRGAKCINGRCTCYP) [compound 20]
Solution: 92

Exercise: Please give measured Activity of NR2B with peptide (percentage of the reference compound) of the following entry: 21 (GSAEIIRCSGTRECYAPCQKLTGCLNAKCMNKACKCYGCV) [compound 21]
Solution: 105

Exercise: # return recorded Activity of NR2B with peptide (percentage of the reference compound) for input 29 (GSVFINVKCRGSPECLPKCKEAIGKSAGKCMNGKCKCYP) [compound 29]
Solution: 82

Exercise: Look up Activity of NR2B with peptide (percentage of the reference compound) of 36 (GSAQEPVKGPVSTKPGSCPIILIRCAMLNPPNRCLKDTDCPGIKKCCEGSCGMACFVPQ) [compound 36] and report it.
Solution: 96

Exercise: Report Activity of NR2B with peptide (percentage of the reference compound), nothing else, for this substance: 27 (GSACQFWSCNSSCISRGYRQGYCWGIQYKYCQCQ) [compound 27]
Solution: 89

Exercise: Name the recorded Activity of NR2B with peptide (percentage of the reference compound) of the item 6 (GSVRIPVSCKHSGQCLKPCKDAGMRFGKCMNGKCDCTPK) [compound 6] in your answer.
Solution: 75

Exercise: State, in one line, measured Activity of NR2B with peptide (percentage of the reference compound) of 3 (GSSEKDCIKHLQRCRENKDCCSKKCSRRGTNPEKRCR) [compound 3]
Solution: 74

Exercise: Hello, please tell me recorded Activity of NR2B with peptide (percentage of the reference compound) for this one: 10 (GSQVQTNVKCQGGSCASVCRREIGVAAGKCINGKCVCYRN) [compound 10]
Solution: 98
